Items are presented alongside their recorded IC50.
Test system: HPV31 pseudoviruses
Test: HPV31 pseudovirus infection in HaCaT cells
Format: cell-based
outcomeMeasure: IC50 (nM)

In [3]: df
Out[3]:
                                   compound  rel  measuredvalue
0  CCCn1c2ccccc2c2nnc(SC(CC)C(=O)Nc3ccc(Cl)cn3)nc21 (centres unmarked)    =            150
1  Cc1cc(C(c2ccc(F)cc2)c2cc(C)c(NC(=O)c3ccccc3)c(C)c2)cc(C)c1NC(=O)c1ccccc1    <            100

----------
Experiment: in vitro
Details: human, Primary HTS Viability % Average
outcomeMeasure: viability at 52 h, 3 μM (%)

>>> print(df.to_string())
                                   compound           outcomemeasure  measuredvalue
0  CCOc1ccc(C(=O)Nc2ccc3oc(-c4ccccc4Br)nc3c2)cc1  viability at 52 h, 3 μM           89.5
1   FC(F)(F)c1cnc2c(c1)nc(S)n2-c1ccc(Cl)cc1  viability at 52 h, 3 μM           95.8
2  O=C(N(c1cccc(C(F)(F)F)c1)C1C=CS(=O)(=O)C1)C(F)(F)F (stereo not drawn)  viability at 52 h, 3 μM           96.4
3  CC(O)c1cccc(NC(=O)c2cc3n(n2)C(C(F)(F)F)CC(c2ccc(F)cc2)N3)c1 (stereo not drawn)  viability at 52 h, 3 μM            116
4  Cc1ccccc1C(=O)N1CC(C)CC(C)C1 (stereo not drawn)  viability at 52 h, 3 μM            102
5  CCOC(=O)CCc1c(C)nc2c(C)c(-c3ccccc3)nn2c1O  viability at 52 h, 3 μM             85
6        NNC(=O)c1cc(COc2cc(Cl)cc(Cl)c2)on1  viability at 52 h, 3 μM           94.5
7  Cc1nc2ccccn2c1C(=O)NC(C)c1ccccc1 (stereo not drawn)  viability at 52 h, 3 μM            105
8  O=S1(=O)C=CC(Nc2cccc(C(F)(F)F)c2)C1 (stereo not drawn)  viability at 52 h, 3 μM           98.2
